test details: Example 5 Supplemental: turbidity meter (Nephla) of compositions with active agents over time (Table 12a)
Assay type: physicochemical
run conditions: SMA 3000P (hydrolysed) 2.5%, lipid 90H 1%, S LPC 0.01%, active agent 0.1%
reported endpoint: pH on clearing

>  <molecule>
CCC(=O)O[C@]1(C(=O)CCl)[C@@H](C)C[C@H]2[C@@H]3CCC4=CC(=O)C=C[C@]4(C)[C@@]3(F)[C@@H](O)C[C@@]21C [Clo. P, Clobetasol Propionate, reference compound]

>  <reported endpoint>
pH on clearing

>  <recorded value>
8.85

$$$$
>  <molecule>
CC(C)CCC[C@@H](C)[C@H]1CC[C@H]2C3=CC=C4C[C@@H](O)CC[C@]4(C)[C@H]3CC[C@]12C [7-DHC, 7-Dehydrocholesterol]

>  <reported endpoint>
pH on clearing

>  <recorded value>
8.91

$$$$
>  <molecule>
CCCCC(CC)COC(=O)C=Cc1ccc(OC)cc1 (centres unmarked) [Eusolex 2292, Octyl methoxycinimate]

>  <reported endpoint>
pH on clearing

>  <recorded value>
8.81

$$$$
>  <molecule>
CCCC(=O)O[C@]1(C(=O)CCl)[C@H](C)C[C@@H]2[C@@H]3CCC4=CC(=O)C=C[C@]4(C)[C@]3(F)C(=O)C[C@@]21C

>  <reported endpoint>
pH on clearing

>  <recorded value>
8.94

$$$$
>  <molecule>
CC(=O)N1CCN(c2ccc(OCC3COC(Cn4ccnc4)(c4ccc(Cl)cc4Cl)O3)cc2)CC1 (centres unmarked) [Keta., Ketaconazole, reference compound]

>  <reported endpoint>
pH on clearing

>  <recorded value>
8.63

$$$$
>  <molecule>
Nc1ccc(C(=O)O)cc1

>  <reported endpoint>
pH on clearing

>  <recorded value>
8.89

$$$$
>  <molecule>
CC(Cc1ccc(O)c(O)c1)C(C)Cc1ccc(O)c(O)c1 (centres unmarked) [NDGA, Nordihydroguaiaretic acid]

>  <reported endpoint>
pH on clearing

>  <recorded value>
8.98

$$$$
>  <molecule>
C[C@@H]1[C@H](O)[C@@H](C)/C=C/C=C/CC/C=C/C=C/C=C/C=C/C(O[C@H]2O[C@H](C)[C@@H](O)[C@H](N)[C@@H]2O)CC2O[C@](O)(CC(O)C(O)CCC(O)CC(O)CC(O)CC(=O)O[C@H]1C)CC(O)C2C(=O)O (some centres unmarked) [Nystatin, reference compound]

>  <reported endpoint>
pH on clearing

>  <recorded value>
8.85

$$$$
>  <molecule>
COc1ccc(C(=O)c2ccccc2)c(O)c1

>  <reported endpoint>
pH on clearing

>  <recorded value>
8.96

$$$$
>  <molecule>
NC[C@@H]1O[C@H](O[C@H]2[C@@H](O)[C@H](O[C@@H]3[C@@H](O)[C@H](N)C[C@H](N)[C@H]3O[C@H]3O[C@H](CN)[C@@H](O)[C@H](O)[C@H]3N)O[C@@H]2CO)[C@H](N)[C@@H](O)[C@@H]1O.O=S(=O)(O)O [Neo. Sulphate, Neomycin Sulphate, reference compound]

>  <reported endpoint>
pH on clearing

>  <recorded value>
8.82

$$$$
>  <molecule>
CC(C)CCC[C@@H](C)[C@H]1CC[C@H]2[C@@H]3CC=C4C[C@@H](OS(=O)(=O)O)CC[C@]4(C)[C@H]3CC[C@]12C [Chol Sulphate]

>  <reported endpoint>
pH on clearing

>  <recorded value>
8.81

$$$$
>  <molecule>
COc1ccc(C(=O)CC(=O)c2ccc(C(C)(C)C)cc2)cc1

>  <reported endpoint>
pH on clearing

>  <recorded value>
8.88

$$$$
>  <molecule>
Clc1ccccc1C(c1ccccc1)(c1ccccc1)n1ccnc1 [Clot., Clotrimazole, reference compound]

>  <reported endpoint>
pH on clearing

>  <recorded value>
8.78

$$$$
>  <molecule>
CCCC(=O)O[C@]1(C(=O)CO)CC[C@H]2[C@@H]3CCC4=CC(=O)CC[C@]4(C)[C@H]3[C@@H](O)C[C@@]21C

>  <reported endpoint>
pH on clearing

>  <recorded value>
8.86

$$$$
